# Assayed target: LCK (Homo sapiens, UniProt P06239)
# Sequence (P06239 whole entry): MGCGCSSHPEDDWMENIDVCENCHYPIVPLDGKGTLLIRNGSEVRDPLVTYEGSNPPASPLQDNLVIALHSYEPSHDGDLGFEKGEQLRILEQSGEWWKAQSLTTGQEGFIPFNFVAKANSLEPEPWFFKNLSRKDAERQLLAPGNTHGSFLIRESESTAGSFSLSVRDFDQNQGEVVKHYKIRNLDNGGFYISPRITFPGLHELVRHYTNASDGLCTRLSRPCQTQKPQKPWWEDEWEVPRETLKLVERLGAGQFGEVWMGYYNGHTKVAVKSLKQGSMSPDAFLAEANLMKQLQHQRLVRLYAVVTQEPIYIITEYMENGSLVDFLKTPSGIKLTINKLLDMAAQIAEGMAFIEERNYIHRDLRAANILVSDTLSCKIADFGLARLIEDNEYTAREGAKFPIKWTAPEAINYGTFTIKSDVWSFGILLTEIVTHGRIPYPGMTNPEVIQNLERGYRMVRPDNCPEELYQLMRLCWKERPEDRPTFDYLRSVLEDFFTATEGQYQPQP
# Method summary: Inhibition of a panel of kinases, in vitro HotSpot kinase assay: LCK
# Assay type: biochemical
# Measurement conditions: Table 10, Formula A-I; 1 μM ATP; read-out: LCK (IC50)
Listed here: items and their measured IC50.

Observe how each entry below is paired with its result.
Compound: Cc1cc(Nc2nc(N3CCC[C@H](NC(=O)c4ccc(N(C)C)cc4)[C@@H]3C)cnc2C(N)=O)sn1
IC50: 100 to 1000 nM
//
Compound: COc1cccc(NC(=O)N[C@@H]2CCCN(c3cnc(C(N)=O)c(Nc4cc(C)ns4)n3)C2)c1
IC50: 100 to 1000 nM
//
Compound: Cc1cc(Nc2nc(N3CCC[C@@H](NC(=O)c4ccc(C5CC5)cc4)C3)cnc2C(N)=O)sn1
IC50: > 10000 nM

Problem: Answer briefly: IC50 recorded on LCK (Homo sapiens, UniProt P06239) for `Cc1cc(Nc2nc(N3CCC[C@@H](NC(=O)c4ccc(F)cc4F)C3)cnc2C(N)=O)sn1`
Solution: > 10000 nM

Problem: Answer briefly: IC50 recorded on LCK (Homo sapiens, UniProt P06239) for `Cc1cc(Nc2nc(N3CC[C@@H](NC(=O)N(C)C)C3)cnc2C(N)=O)sn1`
Solution: > 10000 nM

Problem: Answer briefly: IC50 recorded on LCK (Homo sapiens, UniProt P06239) for `C[C@H]1[C@@H](NC(=O)N(C)C)CCCN1c1cnc(C(N)=O)c(Nc2ccc3ncccc3c2)n1`
Solution: > 10000 nM

Problem: Answer briefly: IC50 recorded on LCK (Homo sapiens, UniProt P06239) for `Cc1cc(Nc2nc(N3CCC[C@@H](NC(=O)c4cccc(F)c4)C3)cnc2C(N)=O)sn1`
Solution: 100 to 1000 nM

Problem: Answer briefly: IC50 recorded on LCK (Homo sapiens, UniProt P06239) for `Cc1cc(Nc2nc(N3CCC[C@@H](NC(=O)N4Cc5ccccc5C4)C3)cnc2C(N)=O)sn1`
Solution: 100 to 1000 nM

Problem: Answer briefly: IC50 recorded on LCK (Homo sapiens, UniProt P06239) for `Cc1cc(Nc2cc(N3CCC[C@@H](NC(=O)c4ccccc4)C3)cnc2C(N)=O)sn1`
Solution: 100 to 1000 nM

Problem: Answer briefly: IC50 recorded on LCK (Homo sapiens, UniProt P06239) for `C=CC(=O)N[C@@H]1CCCN(c2cnc(C(N)=O)c(Nc3ccc(C4CCN(C5CCCC5)CC4)cc3)n2)[C@@H]1C`
Solution: < 100 nM

Problem: Answer briefly: IC50 recorded on LCK (Homo sapiens, UniProt P06239) for `Cc1cc(Nc2nc(N3CCC[C@@H](N4CCN(c5cccc(Cl)c5)C4=O)C3)cnc2C(N)=O)sn1`
Solution: < 100 nM

Problem: Answer briefly: IC50 recorded on LCK (Homo sapiens, UniProt P06239) for `CS(=O)(=O)c1ccc(Nc2nc(N3CCC[C@@H](NC(=O)Nc4cccnc4)C3)cnc2C(N)=O)cc1`
Solution: 100 to 1000 nM
